- Experimental System: UniProtKB Q15858
- Sequence (Q15858 whole entry): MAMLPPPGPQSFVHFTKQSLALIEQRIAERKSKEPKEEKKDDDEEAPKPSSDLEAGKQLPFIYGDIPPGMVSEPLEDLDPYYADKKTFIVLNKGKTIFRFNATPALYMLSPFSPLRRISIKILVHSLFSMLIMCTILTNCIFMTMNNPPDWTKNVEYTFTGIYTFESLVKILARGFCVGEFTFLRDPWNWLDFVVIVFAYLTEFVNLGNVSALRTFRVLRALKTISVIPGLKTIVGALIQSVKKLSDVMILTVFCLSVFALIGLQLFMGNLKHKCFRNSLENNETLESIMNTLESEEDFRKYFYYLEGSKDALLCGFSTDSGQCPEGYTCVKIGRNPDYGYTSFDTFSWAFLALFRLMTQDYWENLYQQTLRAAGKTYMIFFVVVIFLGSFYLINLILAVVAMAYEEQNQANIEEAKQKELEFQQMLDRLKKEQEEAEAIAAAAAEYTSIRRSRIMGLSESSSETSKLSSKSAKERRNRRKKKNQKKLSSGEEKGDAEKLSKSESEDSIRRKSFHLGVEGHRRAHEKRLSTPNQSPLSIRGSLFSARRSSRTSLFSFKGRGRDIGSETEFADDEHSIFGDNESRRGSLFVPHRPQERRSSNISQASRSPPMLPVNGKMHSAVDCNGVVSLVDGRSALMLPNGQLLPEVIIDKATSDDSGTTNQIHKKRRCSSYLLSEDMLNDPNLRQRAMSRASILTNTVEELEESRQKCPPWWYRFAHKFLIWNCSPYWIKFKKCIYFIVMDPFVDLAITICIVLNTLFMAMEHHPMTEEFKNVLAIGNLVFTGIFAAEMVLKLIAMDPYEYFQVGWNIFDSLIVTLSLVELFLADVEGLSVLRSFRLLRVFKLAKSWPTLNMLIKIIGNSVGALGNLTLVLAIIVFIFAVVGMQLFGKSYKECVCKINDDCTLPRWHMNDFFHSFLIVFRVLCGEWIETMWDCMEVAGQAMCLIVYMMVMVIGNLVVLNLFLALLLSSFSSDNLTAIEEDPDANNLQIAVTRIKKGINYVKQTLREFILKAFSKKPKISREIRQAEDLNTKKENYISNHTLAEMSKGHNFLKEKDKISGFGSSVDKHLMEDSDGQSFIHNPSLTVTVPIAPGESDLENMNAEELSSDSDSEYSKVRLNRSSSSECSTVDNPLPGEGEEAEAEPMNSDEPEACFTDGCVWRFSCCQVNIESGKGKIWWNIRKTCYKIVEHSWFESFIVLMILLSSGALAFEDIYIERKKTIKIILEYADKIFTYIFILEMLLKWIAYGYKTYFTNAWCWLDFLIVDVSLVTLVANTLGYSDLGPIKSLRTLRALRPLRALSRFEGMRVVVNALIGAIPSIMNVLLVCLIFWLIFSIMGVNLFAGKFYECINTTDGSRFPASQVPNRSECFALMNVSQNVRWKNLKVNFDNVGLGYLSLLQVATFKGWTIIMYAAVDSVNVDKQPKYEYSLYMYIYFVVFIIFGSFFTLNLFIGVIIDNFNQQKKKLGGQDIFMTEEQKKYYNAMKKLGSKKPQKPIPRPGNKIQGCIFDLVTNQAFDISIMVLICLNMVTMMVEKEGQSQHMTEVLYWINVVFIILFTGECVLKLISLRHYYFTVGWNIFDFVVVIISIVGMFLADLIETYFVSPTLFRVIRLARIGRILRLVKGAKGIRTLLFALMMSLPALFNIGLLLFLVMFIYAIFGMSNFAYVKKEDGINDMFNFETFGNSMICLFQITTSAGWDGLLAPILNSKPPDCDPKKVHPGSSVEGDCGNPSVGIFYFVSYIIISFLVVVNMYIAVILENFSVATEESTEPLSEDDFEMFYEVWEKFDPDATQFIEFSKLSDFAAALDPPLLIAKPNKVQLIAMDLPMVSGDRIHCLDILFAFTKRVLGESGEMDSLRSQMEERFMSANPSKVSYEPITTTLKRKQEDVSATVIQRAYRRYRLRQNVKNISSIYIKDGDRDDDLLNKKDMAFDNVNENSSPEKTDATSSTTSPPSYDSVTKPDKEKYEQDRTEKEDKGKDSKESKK
- Assay Summary: E-VIPR optical membrane potential assay with electrical stimulation
- Assay Setup: active against one or more sodium channels; Table 3 does not name the assay or NaV subtype; read-out: Binned Activity Data (IC50)
Readout: IC50

>  <Compound>
CC(C)Oc1ccc(C(=O)N2CCC3(CC2)c2ccc(C(=O)C(F)(F)F)n2CCN3C)cc1C#N [Compound 51]

>  <IC50>
≤ 2000 nM

$$$$
>  <Compound>
CC(=O)c1ccc2n1CCN(C)C21CCN(C(=O)c2ccc(OC(C)C)cc2)CC1 [Compound 342]

>  <IC50>
> 5000 nM

$$$$
>  <Compound>
CCC(C)(C)c1ccc(C(=O)N2CCC3(CC2)NC(C)(C)Cn2c(C(=O)C(F)(F)F)ccc23)cc1 [Compound 408]

>  <IC50>
≤ 2000 nM

$$$$
>  <Compound>
Cc1cc(C(=O)N2CCC3(CC2)NCC(C)n2c(C(=O)C(F)(F)F)ccc23)ccc1C(C)(C)O (stereo not drawn) [Compound 235]

>  <IC50>
≤ 2000 nM

$$$$
>  <Compound>
CC(C)CCOc1ccc(C(=O)N2CCC3(CC2)NC(C)(C)Cn2c(C(=O)C(F)(F)F)ccc23)cc1 [Compound 409]

>  <IC50>
≤ 2000 nM

$$$$

# IC50 of COCCOc1ccc(C(=O)N2CCC3(CC2)c2ccc(C(F)(F)C(F)(F)F)n2CCN3C)cc1OC [Compound 245] = ≤ 2000 nM

# IC50 of CCN(CC)c1ncccc1C(=O)N1CCC2(CC1)c1ccc(C(F)(F)F)n1CCN2C [Compound 684] = > 5000 nM

# IC50 of CC1Cn2c(C(F)(F)F)ccc2C2(CCN(C(=O)c3ccc(OC(C)C)cc3F)CC2)N1 (stereo not drawn) [Compound 427] = ≤ 2000 nM

# IC50 of CNS(=O)(=O)c1ccc(C(=O)N2CCC3(CC2)c2ccc(C(=O)C(C)(C)C)n2CCN3C)cc1C [Compound 561] = ≤ 2000 nM

# IC50 of CC(C)Oc1ccc(C(=O)N2CCC3(CC2)c2ccc(C(F)(F)F)n2CCN3C)cc1CO [Compound 709] = ≤ 2000 nM

# IC50 of COc1cc(C(=O)N2CCC3(CC2)c2ccc(Cl)n2CCN3C)ccc1OCCOC(F)(F)F [Compound 650] = ≤ 2000 nM

# IC50 of COc1ccc(C(=O)N2CCC3(CC2)NC(C)(C)Cn2c(C(C)=O)ccc23)cc1C(F)(F)F [Compound 633] = > 5000 nM

# IC50 of CC(=O)c1ccc2n1CCN(C)C21CCN(C(=O)c2ccc(OC(C)C)c(C)n2)CC1 [Compound 691] = ≤ 2000 nM

# IC50 of CC1(C)Cn2c(C(=O)C(F)(F)F)ccc2C2(CCN(C(=O)c3ccc(-c4ccccc4)cn3)CC2)N1 [Compound 707] = ≤ 2000 nM

# IC50 of C[C@H]1Cn2c(C(=O)C(F)(F)F)ccc2C2(CCN(C(=O)c3ccc(C(C)(C)O)cc3)CC2)N1C [Compound 349] = ≤ 2000 nM
